# Test system: GES-1 cells
# protocol-details: MTT antiproliferative assay, GES-1 normal gastric epithelial cells
# Type: cell-based
# test-context: MTT, exposure for 48 h, non-cancer cell line
pIC50: −log10 of the molar value.

molecule: O=c1[nH]cc(F)c(=O)[nH]1 [Compound 5-Fu, reference compound]
pIC50: 4.99

###

# Test system: MCF-7 cells
# protocol-details: MTT antiproliferative assay, MCF-7 cells
# Format: cell-based, human
# test-context: Homo sapiens, MCF7, 48 h, exposure for 48 h

molecule: COc1ccc(S(=O)(=O)N(Cc2nc(C)c3ccccc3n2)c2cc(OC)c(OC)c(OC)c2)cc1OC [Compound 10h]
measurement-qualifier: =
IC50 / µM: 18.5
--
molecule: COc1cc(N(Cc2nc(C)c3ccccc3n2)C(=O)c2ccccc2)cc(OC)c1OC [Compound 11a]
measurement-qualifier: =
IC50 / µM: 25.3
--
molecule: COc1ccc(CN(c2cc(OC)c(OC)c(OC)c2)S(=O)(=O)c2ccc(Cl)cc2)cc1 [Compound 6b]
measurement-qualifier: >
IC50 / µM: 40
--
molecule: COc1ccc(S(=O)(=O)N(Cc2nc(C)c3ccccc3n2)c2cc(OC)c(OC)c(OC)c2)cc1 [Compound 9i]
measurement-qualifier: =
IC50 / µM: 0.816
--
molecule: COc1ccc(S(=O)(=O)N(Cc2ccc(Br)cc2)c2cc(OC)c(OC)c(OC)c2)cc1 [Compound 9c]
measurement-qualifier: =
IC50 / µM: 33.8
